TGT: FGF-R1 (Homo sapiens, UniProt P11362, C488A/C584S/L457V)
Construct: starting from the endogenous methionine residue 456 to glutamate 766; made in house; host or cells: baculovirus vector expression system
Sequence (P11362 456-766 L457V/C488A/C584S): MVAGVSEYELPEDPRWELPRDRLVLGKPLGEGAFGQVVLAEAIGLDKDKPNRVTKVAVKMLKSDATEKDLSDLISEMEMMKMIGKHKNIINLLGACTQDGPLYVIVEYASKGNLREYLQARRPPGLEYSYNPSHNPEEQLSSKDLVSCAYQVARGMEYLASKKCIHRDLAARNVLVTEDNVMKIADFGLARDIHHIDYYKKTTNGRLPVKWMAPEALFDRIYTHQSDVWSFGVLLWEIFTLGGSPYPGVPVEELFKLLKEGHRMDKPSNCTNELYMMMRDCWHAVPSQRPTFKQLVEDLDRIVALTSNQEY
PROTOCOL NOTES: Fibroblast Growth Factor (FGF-R) spectrophotometric assay
Format: biochemical
CONDITION SUMMARY: 1 μM compound; read-out: FGF-P % inhibit @1 μM
ENDPOINT: inhibition at 1 µM (%)
Report the figure in % without appending any unit label.

// query I would be grateful if you could share the reported inhibition at 1 µM for C#CCNC(=O)c1ccccc1Nc1ccc2c(C(=O)NC)n[nH]c2c1 [Example 1(k)] .
// result 12

// query I would be grateful if you could share the reported inhibition at 1 µM for O=C(NCC#CCO)c1ccccc1Nc1ccc2c(/C=N/n3cccc3)n[nH]c2c1 [Example 57] .
// result 52

// query I would be grateful if you could share the reported inhibition at 1 µM for O=C(NCc1ccco1)c1ccccc1Nc1ccc2c(/C=C/c3ccccn3)n[nH]c2c1 [Example 3(i)] .
// result 45

// query I would be grateful if you could share the reported inhibition at 1 µM for O=C(NCc1ccccc1)c1ccccc1Nc1ccc2c(/C=C/c3ccccn3)n[nH]c2c1 [Example 3(g)] .
// result 72

// query I would be grateful if you could share the reported inhibition at 1 µM for Cc1cc(CNC(=O)c2ccccc2Nc2ccc3c(/C=N/n4cccc4)n[nH]c3c2)n(C)n1 [Example 61] .
// result 14

// query I would be grateful if you could share the reported inhibition at 1 µM for C=C(C)CNC(=O)c1ccccc1Nc1ccc2c(/C=C/c3cc(C)cc(C)n3)n[nH]c2c1 [Example 15] .
// result 29

// query I would be grateful if you could share the reported inhibition at 1 µM for Cc1ccnc(/C=C/c2n[nH]c3cc(Nc4ccccc4C(=O)NC4CC4)ccc23)c1 [Example 2(h)] .
// result 75

// query I would be grateful if you could share the reported inhibition at 1 µM for Cc1ccnc(/C=C/c2n[nH]c3cc(Nc4ccccc4C(=O)NCc4ccccn4)ccc23)c1 [Example 37] .
// result 45
